apparent KD of MS2 coat protein values by entry
# Tested on: MS2 coat protein
# procedure text: apparent KD of MS2 coat protein; designed switch direction (-1 OFF switch, 1 ON switch): 1; higher = weaker reporter binding
# run parameters: Eterna round: R95; input ligand: FMN 200 uM
Report the figure in nM without appending any unit label.

sequence data: CUAAAACAUGAGGAUCACCCAUGUCAACAAAGUCGAGGAUAUGGGCAAAUAAAAUAAGAACCAGAAGGCGAAUAAA [salish99_SS1_r3_015] (puzzle: Same State 1)
study target: MS2 coat protein
unit abbreviation: nM
apparent KD of MS2 coat protein: 42.8

sequence data: GUAGAUAUAACGGAGGAUAUUCAAUGAGAGACAUGAGGAUCACCCAUGUGAGAGUGAGAUGAUAGGAAGAAGGCUGAGAGAGAUG [Altered State 2-7 - Jieux - Same State 2] (puzzle: Same State 2)
study target: MS2 coat protein
unit abbreviation: nM
apparent KD of MS2 coat protein: 94.2

sequence data: CGGGUACAUGAGGAUCACCCAUGUGGAAGAGAUGCAGGAUAUGUGGGAAAAGGGAAUGUAACAGAAGGGCAAGGAG [JR_SS!_Sub016] (puzzle: Same State 1)
study target: MS2 coat protein
unit abbreviation: nM
apparent KD of MS2 coat protein: 53.4

Need apparent KD of MS2 coat protein, item UGUAAACAUGAGGAUCACCCAUGUAAUAAUAUGGGAGGAUAUGGGAAUUAAUUAAUUAAACCAGAAGGCCUAAUGU [Mat - Same State 1 - D88] (puzzle: Same State 1)
30.9

Likewise for AUAAAACAUGAGGAUCACCCAUGUCAACAUAGUCGAGGAUAUGGGCAAAUAAAAUAAGAACCAGAAGGCGAAUAAU [salish99_ss1_r3_040] (puzzle: Same State 1) ?
50.5

Value source: the supplement of paper PMC9170038
